- Tested on: E. coli BW25113 tolCp lux reporter
- method-description: promoter activity interaction Z-score (Lux/OD deviation from empty-vector control); higher = stronger promoter induction by the compound
- experimental-parameters: 0.25 µg/ml; genetic background: Δrob

molecule	tgt	promoter activity interaction Z-score
CN(C)c1ccc(O)c2c1C[C@H]1C[C@H]3[C@H](N(C)C)C(O)=C(C(N)=O)C(=O)[C@@]3(O)C(O)=C1C2=O [Minocycline]	E. coli BW25113 tolCp lux reporter	0.646
CC1(C)S[C@@H]2[C@H](NC(=O)[C@H](N)c3ccc(O)cc3)C(=O)N2[C@H]1C(=O)O [Amoxicillin]	E. coli BW25113 tolCp lux reporter	0.375
N=C(NCCCCCCNC(=N)NC(=N)Nc1ccc(Cl)cc1)NC(=N)Nc1ccc(Cl)cc1 [Chlorhexidine]	E. coli BW25113 tolCp lux reporter	0.568
C/C(=C\C(=O)OCCCCCCCCC(=O)O)C[C@@H]1OC[C@H](C[C@@H]2O[C@H]2[C@@H](C)[C@H](C)O)[C@@H](O)[C@H]1O [Pseudomonic acid]	E. coli BW25113 tolCp lux reporter	-0.281
CO[C@@]12[C@H](COC(N)=O)C3=C(C(=O)C(C)=C(N)C3=O)N1C[C@@H]1N[C@@H]12 [Mitomycin C]	E. coli BW25113 tolCp lux reporter	0.121

Data provenance: the supplement of paper PMC12282887
